- Tested on: CP329
- Method Notes: qHTS profiling for inhibitors of Plasmodium falciparum proliferation (AID 504749); further: nearly all actives have a fitted effect of over 60% in size
- Run Parameters: P. falciparum in erythrocytes, SYBR Green DNA, 72 h; series mostly up to 28.7 µM
Inconclusive results are not listed. Active and inactive are the calls of the source. The call rests on the fitted dose curve; in most records, active means well fitted inhibition curve with a large enough effect; inconclusive means small, poorly fitted or top-dose-only effect; inactive means flat fitted curve, though single readings scatter. Numbered stars: 1 amine (or outer) side, 2 acyl side, 3 side chain; on linkers, the order of the positions; unused ones are H or OH. Bridge positions count the residues as written; N and C are the ends. Square brackets hold non-standard residues; d marks the D form. Peptide text beside a SMILES is read from it. * marks the point of attachment. ξ: configuration not given here. ΔAla(Z-3-ureido) = NC(=O)N/C=C(\N)C(=O)O; X1 = NC1=NCCC(C(N[*:1])C(=O)[*:2])N1; ξβ3hOrn = NCCCC(N)CC(=O)*; Dap = NC[CH](N)C(=O)O
Result category, one only: class 1 for active, class 0 for inactive

INPUT: Short answer needed: outcome of this test for O=C(O)c1ccccc1-c1c2cc(Br)c(=O)c(Br)c-2oc2c(Br)c(O)c(Br)cc12 ?
OUTPUT: class 0

INPUT: NCCCC(N)CC(=O)NCC1NC(=O)C(CO)NC(=O)C(N)CNC(=O)C(C2CCN=C(N)N2)NC(=O)/C(=C/NC(N)=O)NC1=O (stereo not drawn) (H-[Dap]S[Dap](ξβ3hOrn)[ΔAla(Z-3-ureido)][X1]; lactam 1-C; configuration not given here) ?
OUTPUT: class 0

INPUT: NC(=O)CCC1NC(=O)C(Cc2ccccc2)NC(=O)C(Cc2ccc(O)cc2)NC(=O)CCSSCC(C(=O)N2CCCC2C(=O)NC(CCCN=C(N)N)C(=O)NCC(N)=O)NC(=O)C(CC(N)=O)NC1=O (stereo not given) ?
OUTPUT: class 0

INPUT: CC(=O)OCC1=C(C(=O)O)N2C(=O)C(NC(=O)Cc3ccccc3)C2SC1 (stereo not given) ?
OUTPUT: class 0

INPUT: O=C(OCC1OC(OC(=O)c2cc(O)c(O)c(OC(=O)c3cc(O)c(O)c(O)c3)c2)[C@@H](OC(=O)c2cc(O)c(O)c(OC(=O)c3cc(O)c(O)c(O)c3)c2)C(OC(=O)c2cc(O)c(O)c(OC(=O)c3cc(O)c(O)c(O)c3)c2)C1OC(=O)c1cc(O)c(O)c(OC(=O)c2cc(O)c(O)c(O)c2)c1)c1cc(O)c(O)c(OC(=O)c2cc(O)c(O)c(O)c2)c1 (stereo not given in full) ?
OUTPUT: class 1

----------
- Tested On: Ubiquitin carboxyl-terminal hydrolase 2 (Homo sapiens)
- Method Notes: qHTS for Inhibitors of Ubiquitin-specific Protease USP2a Using CHOP2 as the Reporter: K484 Substrate (AID 652173);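 further: cleavage of internally quenched K48 di-ubiquitin substrate measured as rising fluorescence over time; nearly all actives have a fitted effect of over 70% in size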
- Run Parameters: USP2 cleavage of DiUb K48 IQF substrate, fluorescence; series mostly up to 57.5 µM
Results filed as inconclusive are left out. Activity calls are given as the source filed them. Calls come from the whole dose curve; as a rule, active = well fitted inhibition curve with a large enough effect; inconclusive = small, poorly fitted or top-dose-only effect; inactive = flat fitted curve, though single readings scatter.
Result category, one only: yes (1) for active, no (0) for inactive

INPUT: Short answer needed: outcome of this test for CCN(CC)C(=O)C1CCC(C(=O)Nc2ccc([S+](=O)([O-])Nc3nccs3)cc2)CC1 (centres undefined) ?
OUTPUT: no (0)

INPUT: Cc1ccc(S(=O)(=O)Nc2cnccc2C(=O)Nc2nc3ccccc3s2)cc1 ?
OUTPUT: yes (1)

INPUT: N#Cc1cnc(NS(=O)(=O)c2ccc(NC(=O)Cc3ccc(F)c(Cl)c3)cc2)s1 ?
OUTPUT: yes (1)

INPUT: Cc1ccc(C(=O)Nc2ccc(S(=O)(=O)Nc3nccs3)cc2)cc1C ?
OUTPUT: yes (1)

----------
- Tested On: Glucocorticoid receptor (Homo sapiens) (UniProt P04150)
- Sequence (P04150 whole entry, looked up): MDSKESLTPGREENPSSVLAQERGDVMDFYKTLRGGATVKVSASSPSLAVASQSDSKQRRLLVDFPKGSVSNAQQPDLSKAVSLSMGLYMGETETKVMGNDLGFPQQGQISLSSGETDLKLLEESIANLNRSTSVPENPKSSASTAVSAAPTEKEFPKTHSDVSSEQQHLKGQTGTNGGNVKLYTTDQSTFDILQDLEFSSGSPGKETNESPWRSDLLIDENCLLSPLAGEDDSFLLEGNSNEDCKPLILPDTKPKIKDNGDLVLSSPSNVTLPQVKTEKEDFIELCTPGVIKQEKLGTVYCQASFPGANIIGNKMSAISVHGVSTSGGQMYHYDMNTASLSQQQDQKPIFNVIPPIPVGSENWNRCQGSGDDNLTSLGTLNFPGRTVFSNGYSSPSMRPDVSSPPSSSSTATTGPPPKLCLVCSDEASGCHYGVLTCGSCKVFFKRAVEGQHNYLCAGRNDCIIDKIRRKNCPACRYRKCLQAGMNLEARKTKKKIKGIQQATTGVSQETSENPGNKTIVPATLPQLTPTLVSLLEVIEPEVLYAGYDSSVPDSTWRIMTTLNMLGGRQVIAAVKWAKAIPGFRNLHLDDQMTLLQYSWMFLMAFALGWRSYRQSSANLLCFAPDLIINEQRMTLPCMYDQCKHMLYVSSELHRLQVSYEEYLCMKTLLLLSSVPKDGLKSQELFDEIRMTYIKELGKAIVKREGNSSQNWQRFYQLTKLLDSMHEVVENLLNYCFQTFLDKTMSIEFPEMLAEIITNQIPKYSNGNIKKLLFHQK
- Method Notes: qHTS assay for small molecule antagonists of glucocorticoid receptor signaling (AID 588533);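 further: cells stimulated with 2 nM dexamethasone as agonist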
- Run Parameters: HeLa MMTV-bla, GRE beta-lactamase ratio, antagonist mode, 18 h; series mostly up to 76.8 µM
Inconclusive results are not listed. Active and inactive are the calls of the source. The call rests on the fitted dose curve; in most records, active means well fitted inhibition curve with a large enough effect in the signal ratio, with a control signal flat (not every such curve was filed as active); inconclusive means small, poorly fitted or top-dose-only effect, or effect the other way, or a change in a side signal; inactive means flat fitted curve, though single readings scatter; the % refers to the signal ratio.
Result category, one only: Y (active), N (inactive)

INPUT: Short answer needed: outcome of this test for O=C(O)c1cc(O)c2ccccc2c1O ?
OUTPUT: Y

INPUT: CC(Cl)(Cl)C(=O)OCCOc1cc(Cl)c(Cl)cc1Cl ?
OUTPUT: N

INPUT: COCCOCCOCCOC ?
OUTPUT: N

INPUT: C=C(C)C(=O)OCCCCCCCCCCCCCCCC ?
OUTPUT: N

INPUT: CCCCCCCCCCCCCCC ?
OUTPUT: N

INPUT: Nc1nc(N)nc(-c2ccccc2)n1 ?
OUTPUT: N

INPUT: Cc1c(Cl)cccc1Cl ?
OUTPUT: N

INPUT: CC1(C)C(=O)NC(=O)N1CO ?
OUTPUT: N

----------
- Tested On: Glucocorticoid receptor (Homo sapiens)
- Method Notes: qHTS assay for small molecule agonists of glucocorticoid receptor signaling (AID 588532);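 further: 100% = dexamethasone at 0.1 µM and 0% = DMSO only wells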
- Run Parameters: HeLa MMTV-bla, beta-lactamase ratio, agonist, 18 h; hits give high values; percent of dexamethasone control, DMSO zero
Results filed as inconclusive are left out.
Task for the reader: assign each of the following compounds its reported activation.
Numbers only here, please. The scale is %.

INPUT: Look up activation for this compound: NC(=O)Cc1cccc2ccccc12
OUTPUT: -1.98

INPUT: C=CCCCCCCCCCC ?
OUTPUT: -14.2

INPUT: CCCCCCCCCCCCCCC(=O)OC ?
OUTPUT: -1.65

INPUT: O=C1NC(=O)C(Cc2ccc(OCCN3COc4ccccc4C3=O)cc2)S1 (centres undefined) ?
OUTPUT: 5.15

INPUT: CCCCOC(=O)[C@@H](C)Oc1ccc(Oc2ccc(C(F)(F)F)cn2)cc1 ?
OUTPUT: -9.59

INPUT: CCCCCCCCCC[N+](C)(C)Cc1ccccc1 ?
OUTPUT: -4.12

INPUT: CC(C)CCCCOC(=O)c1ccccc1C(=O)OCCCCC(C)C ?
OUTPUT: -8.95

INPUT: CC(C)=CCC[C@@H](C)[C@H]1CC[C@@]2(C)C3=C(CC[C@]12C)[C@@]1(C)CC[C@H](O)C(C)(C)[C@@H]1CC3 ?
OUTPUT: 8.87

INPUT: NCCCCCCCCCCCC(=O)O ?
OUTPUT: 8.75

INPUT: O=C1CCCC/C=C/CCCCCCCCCO1 ?
OUTPUT: -15.4

INPUT: CC(C)(C)c1cccc(C(C)(C)C)c1O ?
OUTPUT: -7.64

INPUT: CCOC(=O)c1ccccc1C ?
OUTPUT: 10.9

INPUT: C[Si]1(C)O[Si](C)(C)O[Si](C)(C)O[Si](C)(C)O[Si](C)(C)O1 ?
OUTPUT: 5.87

INPUT: C=C[Si](OCCOC)(OCCOC)OCCOC ?
OUTPUT: -9.96

INPUT: CCCCCCCCCC(C)=O ?
OUTPUT: -12.1

INPUT: CC/C=C\CCOC(=O)c1ccccc1O ?
OUTPUT: -3.47

INPUT: CCCCOCCOCCOC(=O)CCCCC(=O)OCCOCCOCCCC ?
OUTPUT: -7.36

INPUT: CC(C)(C)c1ccc(C(=O)O)cc1 ?
OUTPUT: -3.04

INPUT: CCCCCCCCCCCCCCN(C)C ?
OUTPUT: 12.5

INPUT: CCCCOCC(C)O (centres undefined) ?
OUTPUT: -3.25

INPUT: C[Si](C)(C)N[Si](C)(C)C ?
OUTPUT: -9.44

INPUT: CCOc1ccc(NC(=O)OC(C)C)cc1OCC ?
OUTPUT: -6.81

INPUT: O=C(OCCOCCOC(=O)c1ccccc1)c1ccccc1 ?
OUTPUT: -2.84

INPUT: C=CCCCCCCCCCCCC ?
OUTPUT: 9.05

INPUT: O=C(OCC1CCC2OC2C1)C1CCC2OC2C1 (centres undefined) ?
OUTPUT: -15

INPUT: c1ccc(-c2ccc(-c3ccccc3)cc2)cc1 ?
OUTPUT: -0.857

INPUT: CCCCCCCCCCCCN ?
OUTPUT: -4.12

INPUT: CCCCCC1CCC(=O)O1 (centres undefined) ?
OUTPUT: -5.15

INPUT: CCCCCCCCCCCCCCN ?
OUTPUT: -4.59

----------
- Tested On: Lethal(3)malignant brain tumor-like protein 1 (Homo sapiens)
- Method Notes: qHTS Assay for the Inhibitors of L3MBTL1: Hit Validation (AID 540279); further: potency means the concentration at half of the fitted maximal effect; nearly all actives have a fitted effect of over 70% in size
- Run Parameters: L3MBTL1 methyl-lysine binding inhibition, biochemical qHTS
The other results are listed elsewhere or left out. Inconclusive results are not listed. Active and inactive are the calls of the source. Calls follow the shape of the dose curve; as a rule, active = well fitted inhibition curve with a large enough effect; inconclusive = small, poorly fitted or top-dose-only effect; inactive = flat fitted curve, though single readings scatter.
Task for the reader: assign each of the following compounds its reported Potency.

INPUT: Look up Potency for this compound: COc1cccc2c(C)c(C(=O)O)[nH]c12
OUTPUT: 5.97 µM (active)

INPUT: O=C(COC(=O)c1ccc(F)cc1F)Nc1ncccn1 ?
OUTPUT: 5.97 µM (active)

INPUT: COc1ccc(Cc2nnc(NC(=O)Cc3cccs3)s2)cc1 ?
OUTPUT: 1.19 µM (active)

INPUT: Oc1ccc(N=Nc2nccs2)c(O)c1 ?
OUTPUT: 16.8 µM (active)

INPUT: Cn1c2ccccc2c(=O)c2c(=O)n(Cc3ccco3)c(COc3ccccc3)nc21 ?
OUTPUT: 7.52 µM (active)

INPUT: CCN(C(=O)Cc1nc(N)n[nH]1)C1(C(=O)Nc2ccccc2)CCCCC1 ?
OUTPUT: 26.7 µM (active)

INPUT: CSc1nnc(SCc2nc3sc(C(=O)O)c(C)c3c(=O)[nH]2)s1 ?
OUTPUT: 0.532 µM (active)
